Provide the recorded cytotoxicity at 10 µM for the entries that follow.
assay: Toxicity liver stage against HepG2, at 10uM; type: cell-based; set-up: test concentration 10 uM, cell line HepG2-A16-CD81EGFP; settings: human, HepG2-A16-CD81EGFP cells; read-out: INHIBITION
Note: unit % is implicit; provide only the numeric part.

Request: Note down cytotoxicity at 10 µM recorded for `CN(CC1CC1)C(=O)Cc1csc(-c2ncccn2)n1`
Response: 4.56

Request: Note down cytotoxicity at 10 µM recorded for `O=C(CN1CCS(=O)(=O)CC1)Nc1ccc(N2CCCC2)nc1`
Response: 10.3

Request: Note down cytotoxicity at 10 µM recorded for `Cc1occc1C(=O)NC1CCN(C(=O)Nc2cccnc2)CC1`
Response: 8.98

Request: Note down cytotoxicity at 10 µM recorded for `Cc1cccc(C2(CNC(=O)CCNS(C)(=O)=O)CCCC2)c1`
Response: -5.92

Request: Note down cytotoxicity at 10 µM recorded for CN1CCOC(CNC(=O)C2(c3ccccc3)CCC2)C1 (centres undefined)
Response: 6.17

Request: Note down cytotoxicity at 10 µM recorded for `Cc1ncsc1CN1CC[C@H]2OCC[C@@]2(C(=O)NC2CC2)C1`
Response: 2.75

Request: Note down cytotoxicity at 10 µM recorded for `CCCn1ncc(C(=O)N2CCN(C3CCCC3)CC2)c1C`
Response: -151

Request: Note down cytotoxicity at 10 µM recorded for `Cc1cnn(C2CN(CCOc3ccccc3C#N)C2)c1`
Response: -8.88

Request: Note down cytotoxicity at 10 µM recorded for CCC1=NC2(CCC(C(=O)Nc3ccc(C)nc3)CC2)C(=O)N1C (centres undefined)
Response: 8.79

Request: Note down cytotoxicity at 10 µM recorded for `CC[C@@H](C)[C@@H](N)C(=O)Nc1cccc(-c2cnc(NCCO)nc2)c1`
Response: -3.08

Request: Note down cytotoxicity at 10 µM recorded for c1ccc(Cc2noc(-c3ccc(NCC4CCCOC4)nc3)n2)cc1 (centres undefined)
Response: -1.05

Request: Note down cytotoxicity at 10 µM recorded for `CCC(CC)NC(=O)c1cccnc1-n1cccn1`
Response: -13.9

Request: Note down cytotoxicity at 10 µM recorded for COCC(C)(NC(=O)c1cc(Cl)c(-n2cccc2)cc1OC)C(N)=O (centres undefined)
Response: -4.15

Request: Note down cytotoxicity at 10 µM recorded for O=C(NCC1CC1)C1CSCN1S(=O)(=O)c1ccccc1F (centres undefined)
Response: 5.02

Request: Note down cytotoxicity at 10 µM recorded for Cc1cnn(CCC(=O)N2CCCC(c3cc(C(N)=O)[nH]n3)C2)c1 (centres undefined)
Response: -7.32

Request: Note down cytotoxicity at 10 µM recorded for COCCC1(CO)CCCN(Cc2cc(C(F)(F)F)ccc2F)C1 (centres undefined)
Response: -141

Request: Note down cytotoxicity at 10 µM recorded for Cn1cnnc1CNC(=O)C1CCCN(Cc2ccccc2)C1 (centres undefined)
Response: 3.57

Request: Note down cytotoxicity at 10 µM recorded for `Cc1cccc2c1cnn2CCCNC(=O)C1CC1`
Response: 5.01

Request: Note down cytotoxicity at 10 µM recorded for Cc1cc(N2CCOCC2)ccc1NC(C)c1nc(C(C)C)no1 (centres undefined)
Response: -12.3

Request: Note down cytotoxicity at 10 µM recorded for CCc1nnc(CN(C)C2CCCN(Cc3noc(C4CC4)n3)C2)o1 (centres undefined)
Response: 2.27

Request: Note down cytotoxicity at 10 µM recorded for `COc1ccc(-n2cc(CNC(=O)c3ccc[nH]3)nn2)cc1`
Response: -10.9

Request: Note down cytotoxicity at 10 µM recorded for `Cc1cc(O)c(OCC(=O)/N=c2\[nH]c(C)cs2)cn1`
Response: 6.36

Request: Note down cytotoxicity at 10 µM recorded for `CCOc1c(Cl)cc(Cl)cc1CNCCCn1ccnc1`
Response: -1.32

Request: Note down cytotoxicity at 10 µM recorded for `Cc1nn(C)c2c(=O)n(Cc3ccc(C#N)cc3)nnc12`
Response: 3.12
